test system: adipose cells of rats; test: Evaluation of the sugar transportation activity (2-[14C(U)]-deoxy-D-glucose incorporation); format: cell-based, Wistar rats; details: concentration with reinforcing effect of 50% of that of insulin (100 nM) = 100%; rat adipose cells, 30 min pre-culture at 37° C., 5 min uptake
measurement.name: A: sugar transportation activity (EC50) (µg/mL)

Study these solved cases before continuing.
INSERT INTO results (substance_smiles, unit, measurement) VALUES
  ('CCNC(=O)N1[C@@H]2CCCC[C@H]2NC2=C(C(=O)NC2)[C@H]1c1ccccc1OC', 'µg/mL', 3.6),
  ('COC(=O)N1[C@@H]2CCCC[C@H]2NC2=C(C(=O)NC2)[C@H]1c1ccccc1F', 'µg/mL', 2);

1 = CCOc1ccccc1[C@@H]1C2=C(CNC2=O)N[C@@H]2CCCC[C@H]2N1C(=O)CC
2 = COc1ccccc1[C@@H]1C2=C(CNC2=O)N[C@@H]2CCCC[C@H]2N1C(=O)C1CC1
Prompt: // select label with min value of measured A: sugar transportation activity (EC50) from [ 1 , 2 ] # respond with the chosen item's label
Completion: 2
(2: 0.5 µg/mL, 1: 1.9 µg/mL)

###

test system: adipose cells of rats; test: Evaluation of the sugar transportation activity (2-[14C(U)]-deoxy-D-glucose incorporation); format: cell-based, Wistar rats; conditions: concentration with reinforcing effect of 50% of that of insulin (100 nM) = 100%; rat adipose cells, 30 min pre-culture at 37° C., 5 min uptake
measurement.name: A: sugar transportation activity (EC50) (µg/mL)

INSERT INTO measurements (substance_smiles, measurement) VALUES
  ('CCCC(=O)N1[C@@H]2CCCC[C@H]2NC2=C(C(=O)NC2)[C@H]1c1ccccc1CC', 5),
  ('COc1cccc([C@@H]2C3=C(CNC3=O)N[C@@H]3CCCC[C@H]3N2C(C)=O)c1OC', 12),
  ('CCOc1ccccc1[C@@H]1C2=C(CNC2=O)N[C@@H]2CCCC[C@H]2N1C(=O)OC', 1.5),
  ('COC(=O)N1[C@@H]2CCCC[C@H]2NC2=C(C(=O)NC2)[C@H]1c1ccccc1OC', 6),
  ('O=C1NCC2=C1[C@@H](c1ccccc1)N(C(=O)CO)[C@@H]1CCCC[C@H]1N2', 1.5);

a = CCOc1ccccc1[C@@H]1C2=C(CNC2=O)N[C@@H]2CCCC[C@H]2N1C(=O)CO
b = CCOCC(=O)N1[C@@H]2CCCC[C@H]2NC2=C(C(=O)NC2)[C@H]1c1ccccc1O
Prompt: // select label with min value of measured A: sugar transportation activity (EC50) from [ a , b ] # respond with the chosen item's label
Completion: b

I = COCC(=O)N1[C@@H]2CCCC[C@H]2NC2=C(C(=O)NC2)[C@H]1c1ccccc1OC
II = COCC(=O)N1[C@@H]2CCCC[C@H]2NC2=C(C(=O)NC2)[C@H]1c1ccccc1Br
Prompt: // select label with min value of measured A: sugar transportation activity (EC50) from [ I , II ] # respond with the chosen item's label
Completion: I
(I: 2 µg/mL, II: 6 µg/mL)

###

Test system: adipose cells of rats
Assay: Evaluation of the sugar transportation activity (2-[14C(U)]-deoxy-D-glucose incorporation)
Format: cell-based, Wistar rats
Conditions: concentration with reinforcing effect of 50% of that of insulin (100 nM) = 100%; rat adipose cells, 30 min pre-culture at 37° C., 5 min uptake
Procedure: 1. Preparation of Adipose Cells of Rats: After the decapitation and venesection of 6 male Wistar rats (body weight: 150 to 200 g), an incision was made in the abdomen of each rat to extract 6 g in total of epididymal adipose tissues. […] The sugar transportation activity of the compound (I) of the present invention was evaluated with reference to a method described in a literature [Annual Review of Biochemistry, Vol. 55, p. […]
measurement.name: A: sugar transportation activity (EC50) (µg/mL)

Study these solved cases before continuing.
INSERT INTO results (substance_smiles, measurement_name, unit, measurement) VALUES
  ('O=C1NCC2=C1[C@@H](c1ccccc1C1CC1)N(C(=O)CO)[C@@H]1CCCC[C@H]1N2', 'A: sugar transportation activity (EC50)', 'µg/mL', 0.8),
  ('O=C1NCC2=C1[C@@H](c1ccccc1OC1CC1)N(C(=O)CO)[C@@H]1CCCC[C@H]1N2', 'A: sugar transportation activity (EC50)', 'µg/mL', 0.5),
  ('CCNC(=O)N1[C@@H]2CCCC[C@H]2NC2=C(C(=O)NC2)[C@H]1c1ccccc1OCC', 'A: sugar transportation activity (EC50)', 'µg/mL', 12),
  ('CCOCC(=O)N1[C@@H]2CCCC[C@H]2NC2=C(C(=O)NC2)[C@H]1c1cccc(Cl)c1C', 'A: sugar transportation activity (EC50)', 'µg/mL', 5),
  ('COC(=O)N1[C@@H]2CCCC[C@H]2NC2=C(C(=O)NC2)[C@H]1c1ccccc1OC(C)C', 'A: sugar transportation activity (EC50)', 'µg/mL', 4.8);

P = CCOC(=O)N1[C@@H]2CCCC[C@H]2NC2=C(C(=O)NC2)[C@H]1c1ccccc1OCC
Q = COC(=O)N1[C@@H]2CCCC[C@H]2NC2=C(C(=O)NC2)[C@H]1c1ccccc1C
Prompt: // select label with min value of measured A: sugar transportation activity (EC50) from [ P , Q ] # respond with the chosen item's label
Completion: Q
(Q: 2 µg/mL, P: 7 µg/mL)
